Consider the following binders and their measured EC50 readings.
Target: T1, cynomolgus monkey CD73 (on transfected CHOK1 cells) (cynomolgus monkey, UniProt A0A2K5V5U7 27-549)
T1 construct: whole, on cells; also called CHOK1-cCD73; CHOK1-CCD73
T1 sequence: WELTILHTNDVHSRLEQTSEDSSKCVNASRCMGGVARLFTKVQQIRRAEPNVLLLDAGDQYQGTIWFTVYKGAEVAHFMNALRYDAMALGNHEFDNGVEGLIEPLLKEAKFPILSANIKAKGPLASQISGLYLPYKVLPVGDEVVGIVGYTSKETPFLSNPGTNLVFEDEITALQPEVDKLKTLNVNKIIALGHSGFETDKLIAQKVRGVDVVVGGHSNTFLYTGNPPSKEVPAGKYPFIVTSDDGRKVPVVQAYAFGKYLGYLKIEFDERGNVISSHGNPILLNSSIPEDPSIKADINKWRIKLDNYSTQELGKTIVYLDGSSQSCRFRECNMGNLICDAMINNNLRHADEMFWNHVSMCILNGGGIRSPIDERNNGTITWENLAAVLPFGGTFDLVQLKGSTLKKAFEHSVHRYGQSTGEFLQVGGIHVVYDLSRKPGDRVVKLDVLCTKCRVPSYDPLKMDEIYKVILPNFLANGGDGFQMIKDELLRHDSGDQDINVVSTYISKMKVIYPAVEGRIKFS
Assay: FACS on CHOK1-cCD73 cells
Write the value in nM as a bare number.

1. mAb038 (clone 69C9E12), murine anti-CD73 antibody (antibody, V domains shown, Purified from hybridoma supernatant) VH: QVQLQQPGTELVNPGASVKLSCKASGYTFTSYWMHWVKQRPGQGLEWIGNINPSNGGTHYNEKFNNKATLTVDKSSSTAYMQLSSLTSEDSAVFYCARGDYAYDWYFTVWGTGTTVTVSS VL: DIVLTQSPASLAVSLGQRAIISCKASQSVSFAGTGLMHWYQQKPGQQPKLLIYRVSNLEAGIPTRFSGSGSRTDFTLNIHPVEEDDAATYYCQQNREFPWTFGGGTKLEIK: 0.3

stdin: Entry mAb036 (clone 66H6C12), murine anti-CD73 antibody (antibody, V domains shown, Purified from hybridoma supernatant) VH: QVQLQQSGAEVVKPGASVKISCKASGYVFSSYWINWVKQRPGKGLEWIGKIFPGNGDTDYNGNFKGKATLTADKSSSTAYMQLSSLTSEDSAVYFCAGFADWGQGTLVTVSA VL: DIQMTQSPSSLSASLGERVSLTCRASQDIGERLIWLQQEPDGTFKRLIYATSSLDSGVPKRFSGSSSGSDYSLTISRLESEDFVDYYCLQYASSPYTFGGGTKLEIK : reported EC50 = ?
stdout: 0.9
